Here, compounds appear alongside pIC50 reported for UniProtKB Q02763 in the literature.
pIC50: −log10 of the molar value.

Illustrative cases are given below, each with its answer.
{"compound": "Nc1nccc(COc2nsnc2N2CCN(C(=O)Nc3cc(C(F)(F)F)ccc3Cl)CC2)n1", "pIC50": "6.00 to 7.30"}
{"compound": "Nc1nccc(COc2nsnc2N2CCN(C(=O)Nc3cccc(C(F)(F)F)c3)CC2)n1", "pIC50": "> 7.30"}
{"compound": "c1ccc(-c2ncnc(Nc3ccc(OCCCN4CCOCC4)cc3)n2)cc1", "pIC50": "< 4.94"}
{"compound": "COc1ccc(-c2nc(-c3ccncc3)nn2CCN(C(=O)Nc2ccccc2C)C2CCCC2)cc1Cl", "pIC50": "5.00 to 6.00"}
{"compound": "COc1cc(Nc2ncnc(Nc3c(C)n(C)n(-c4ccccc4)c3=O)n2)cc(OC)c1OC", "pIC50": "< 5.01"}

[Q] Which value of pIC50 has been reported for NCC1CC(n2cc(-c3cccc(N(CCCCO)Cc4ccccc4)c3)c3c(N)ncnc32)C1 (centres unmarked) in the records?
[A] 5.41

[Q] Please answer likewise for CCOc1cc(-c2nc(C)n(CCN(C(=O)Cc3cccc4ccccc34)C3CCCC3)n2)cc(N)n1
[A] 5.00 to 6.00

[Q] Please answer likewise for COc1cc(Nc2ncnc(Nc3ccc(C)c(F)c3)n2)cc(OC)c1OC
[A] 4.93 to 5.04
